Test system: NCI-H23
Experiment: NCI tumour cell line growth inhibition, 48 h
Calls of active or inactive are those of the source. Cut-off read from the data, not from the text of the source: active = GI50 up to about 1.1 µM and inactive = higher.
Would you mind answering with one of these outcomes? t for active, f for inactive

[[record]]
compound = "Fc1ccc2c(c1)cc1ccc3cccc4ccc2c1c34"
tested_system = "NCI-H23"
class = "f"

[[record]]
compound = "O=C1c2ccccc2C(=O)c2oc(Br)cc21"
tested_system = "NCI-H23"
class = "t"

[[record]]
compound = "O=c1c2cc(Br)ccc2[nH]c(=S)n1-c1ccccc1"
tested_system = "NCI-H23"
class = "f"

[[record]]
compound = "CS(=O)(=O)OCC1CCCCCCCCCCC12SCCCS2 (configuration not stated)"
tested_system = "NCI-H23"
class = "f"

[[record]]
compound = "CC(C)c1nc2c(Cl)c3ncccc3cc2[nH]c1=O"
tested_system = "NCI-H23"
class = "f"

[[record]]
compound = "CC[C@H](C)N(CCN)C(=O)c1cc2ccccc2c(-c2ccccc2Cl)n1"
tested_system = "NCI-H23"
class = "f"

[[record]]
compound = "COc1ccc2c(c1)[n+]([O-])c(C(=O)C/C(=N/NC(=O)c1ccccc1O)C(=O)Nc1ccc(Cl)c(C(F)(F)F)c1)c(C)[n+]2[O-]"
tested_system = "NCI-H23"
class = "f"

[[record]]
compound = "Clc1cccc(Cl)c1C1SCc2nc3ccccc3n21 (configuration not stated)"
tested_system = "NCI-H23"
class = "f"


-- ask Hello, I am checking results. What call was entered for CN(CCO)/N=N/c1[nH]cnc1C(N)=O ?
-- reply f

-- ask Hello, I am checking results. What call was entered for O=C1C(CN2CCCC2)CCCC1CN1CCCC1 (configuration not stated) ?
-- reply f

-- ask Hello, I am checking results. What call was entered for Cc1ccc(S(=O)(=O)NC(=O)NC(C(=O)O)C(C)C)cc1 (configuration not stated) ?
-- reply f

-- ask Hello, I am checking results. What call was entered for Cc1ccc(C)c(NC(=O)CC/C(=N\NC(=O)c2c(O)ccc3ccccc23)C(C)C(=O)c2ccc(O)cc2)c1 (configuration not stated) ?
-- reply f

-- ask Hello, I am checking results. What call was entered for CC1(C)C/C=C\CCC(O)C(O)CCC(C)(C)C1=O (configuration not stated) ?
-- reply f

-- ask Hello, I am checking results. What call was entered for Cc1nc2cccc(F)c2c(=O)n1-c1nnc(C2CC2)s1 ?
-- reply f

-- ask Hello, I am checking results. What call was entered for O=C1OC2C(O)COC2(O)C1(O)Cc1c[nH]c2ccccc12 (configuration not stated) ?
-- reply f

-- ask Hello, I am checking results. What call was entered for COc1ccc2cc(CN3CCC(C4CCNCC4)CC3)ccc2c1 ?
-- reply f

-- ask Hello, I am checking results. What call was entered for COc1ccc(N2C(=O)CC(c3c[nH]c4ccccc34)C2=O)cc1 (configuration not stated) ?
-- reply f

-- ask Hello, I am checking results. What call was entered for CC1=C(C(=O)Nc2ccccc2)C(c2ccccc2)C(C(=O)Nc2ccccc2)=C(C)N1 ?
-- reply f

-- ask Hello, I am checking results. What call was entered for CC(C)(C)[Si](Nc1ccccc1)(c1ccccc1)c1ccccc1 ?
-- reply f

-- ask Hello, I am checking results. What call was entered for COC(=O)c1nc(NN)cc(O)c1CCCCCc1c(O)nc(NN)nc1C(=O)OC ?
-- reply f

-- ask Hello, I am checking results. What call was entered for CCN(CC)CC1CCCCN1CC(=O)N1c2cc(Cl)ccc2NC(=O)CC1C (configuration not stated) ?
-- reply f

-- ask Hello, I am checking results. What call was entered for O=C(O)CC1NC(/C(=C/c2ccccc2O)NC(=O)c2ccccc2)OC1=O (configuration not stated) ?
-- reply f

----------
System: EKVX
Assay: NCI tumour cell line growth inhibition, 48 h
Activity calls are given as the source filed them. No stated cut-off is given here; in the data, active = GI50 up to about 1.1 µM and inactive = higher.
Task for the reader: assign each of the following compounds its reported GI50.

# map each compound to its GI50
1. CC(=O)c1nc2ccccc2n1C(C)C(=O)c1ccccc1 (configuration not stated)
2. COc1cc(OC)c(Oc2cccc(OC)c2OC)c(OC)c1
3. CC1(C)C/C=C\CCC(O)C(O)CCC(C)(C)C1=O (configuration not stated)
4. Clc1ccc(-c2cc(-c3cc4cc(Br)ccc4nc3Cl)on2)cc1
5. CC[C@]1(Cc2ccc(OC)c(OC)c2)[C@@H]2C[C@@H](C3OCCO3)ON2O[C@H](OC2CCCC2(c2ccccc2)c2ccccc2)[C@@H]1OC(C)=O (some centres not stated)
6. CC(C)(C)c1ccc(-c2nnc(-c3cc(C#N)cc(-c4nnc(-c5ccc(C(C)(C)C)cc5)o4)c3)o2)cc1
7. CCCCCOc1ccc(/C=N\c2ccc(CCc3ccc(/N=C/c4ccc(OCCCCC)cc4)cc3)cc2)cc1

-- reply
["> 100 µM (inactive)", "> 100 µM (inactive)", "> 100 µM (inactive)", "4.93 µM (inactive)", "21.1 µM (inactive)", "> 100 µM (inactive)", "> 100 µM (inactive)"]

----------
Test system: HOP-62
Assay: NCI tumour cell line growth inhibition, 48 h
The source made the active and inactive calls. Rule as the data show it: active = GI50 up to about 1.1 µM and inactive = higher.
Would you mind answering with one of these outcomes? Y = active, N = inactive

[[record]]
molecule = "CCOC(=O)C(Cc1ccc(N(CCCl)CCCl)cc1)NC(=O)CCCN1C(=O)CN=C(c2ccccc2)c2cc(Cl)ccc21 (centres undefined)"
class = "N"

[[record]]
molecule = "CCOC(=O)C(CCC(N)=O)(CCC(=O)OC)C(=O)OCC"
class = "N"


-- ask Hello, I am checking results. What call was entered for Cc1cccc2c(N)c3cccc(C(=O)NCCN4CCOCC4)c3nc12 ?
-- reply Y

-- ask Hello, I am checking results. What call was entered for Cc1nc2nnnn2c2c1C(=O)Nc1ccccc1N2 ?
-- reply N

-- ask Hello, I am checking results. What call was entered for CCN(CC)CC(O)c1ccc2ccc3ccccc3c2c1 (centres undefined) ?
-- reply N

-- ask Hello, I am checking results. What call was entered for CN(C)c1ccc(/C=C(/C(=O)O)c2csc(-c3nc(/C(=C\c4ccc(N(C)C)cc4)C(=O)O)cs3)n2)cc1 ?
-- reply N

----------
Task for the reader: assign each of the following compounds its reported GI50.
Test system: U-251
Experiment: NCI tumour cell line growth inhibition, 48 h
Calls of active or inactive are those of the source. Rule as the data show it: active = GI50 up to about 1.1 µM and inactive = higher.

# map each compound to its GI50
1. O=C(O)c1ccccc1/C=N\N=C1NCCCCN1
2. COC(=O)/C=C\n1ncc(=O)[nH]c1=O
3. CC(=O)Nc1ccccc1S(=O)(=O)c1ccccc1

-- reply
1. > 100 µM (inactive)
2. > 100 µM (inactive)
3. > 100 µM (inactive)

----------
System: HCT-116
Assay: NCI tumour cell line growth inhibition, 48 h
Active and inactive are the calls of the source. Rule as the data show it: active = GI50 up to about 1.1 µM and inactive = higher.
Would you mind answering with one of these outcomes? y (active), n (inactive)

[[record]]
compound = "COc1cc2c(cc1OC)[C@H](C)N1CCc3cc(OC)c(OC)cc3[C@@H]1C2"
tested_system = "HCT-116"
class = "n"

[[record]]
compound = "CC(C)(C)c1cc(C(O)(C(F)(F)F)C(F)(F)F)c2c(c1)C(C(F)(F)F)(C(F)(F)F)OC(C)(C(C)(C)C)N2 (stereo not drawn)"
tested_system = "HCT-116"
class = "n"

[[record]]
compound = "COC(=O)c1ccccc1/C=C1\\Cc2ccc3ccccc3c2C1C (stereo not drawn)"
tested_system = "HCT-116"
class = "n"

[[record]]
compound = "OC(c1cc(C23CC4CC(CC(C4)C2)C3)nc2c(Cl)cc(Cl)cc12)C1CCCCN1 (stereo not drawn)"
tested_system = "HCT-116"
class = "n"

[[record]]
compound = "CC(=O)OCC1OC(n2c3c(cc(C#N)c2=S)CCCCC3)C(OC(C)=O)C(OC(C)=O)C1OC(C)=O (stereo not drawn)"
tested_system = "HCT-116"
class = "n"

[[record]]
compound = "CCN(CC)CCOC(=O)CCN1CC2CCC(CC2)C1"
tested_system = "HCT-116"
class = "n"


We now examine a further compound.
-- ask Hello, I am checking results. What call was entered for Cc1cc(NC(=O)NC(=O)c2ccccc2NC(=O)C(C)N)ccc1Oc1ncc(Br)cn1 (stereo not drawn) ?
-- reply y

----------
System: HCT-15
Task for the reader: assign each of the following compounds its reported GI50.

Solved cases (2 shown):
[[record]]
line_notation = "C/C(=N\\Nc1nc2ccccc2n1C)c1cc2ccccc2cn1"
tested_system = "HCT-15"
readout_value = "< 0.01 µM"

[[record]]
line_notation = "CC1=C(C(=O)CC(=O)C(=O)Nc2ccc(Cl)cc2C)Sc2ccccc2N1"
tested_system = "HCT-15"
readout_value = "> 100 µM"


GI50 for CN(CCO)/N=N/c1[nH]cnc1C(N)=O is > 100 µM

----------
Tested on: A549
Test: NCI tumour cell line growth inhibition, 48 h
The source made the active and inactive calls. Cut-off read from the data, not from the text of the source: active = GI50 up to about 1.1 µM and inactive = higher.
quantity name: GI50

Solved cases (8 shown):
[[record]]
compound = "CCOC(=O)c1nc2ccccc2nc1Oc1ccc(C(=O)OC)cc1"
readout_value = "> 100 µM (inactive)"

[[record]]
compound = "COC(=O)/C=C\\n1ncc(=O)[nH]c1=O"
readout_value = "> 100 µM (inactive)"

[[record]]
compound = "CC(=O)OCC1OC(n2c3c(c(-c4cccc5ccccc45)c(C#N)c2=S)CCCC3)C(OC(C)=O)C(OC(C)=O)C1OC(C)=O (stereo unspecified)"
readout_value = "> 100 µM (inactive)"

[[record]]
compound = "Nn1c(CCCCCCCCc2nnc(COc3ccc4ccccc4c3O)n2N)nnc1COc1ccc2ccccc2c1O"
readout_value = "25.1 µM (inactive)"

[[record]]
compound = "O=C1OCC/C1=N/O"
readout_value = "> 100 µM (inactive)"

[[record]]
compound = "C#CCn1c(=O)c(C)cn(/C(=C/C(=O)OCC)C(=O)OCC)c1=O"
readout_value = "16.2 µM (inactive)"

[[record]]
compound = "O=C(O)CCC(=O)Nc1ccc2c(c1)S(=O)(=O)N(CC(=O)O)C2=O"
readout_value = "> 100 µM (inactive)"

[[record]]
compound = "COc1ccc(C(Cl)=C(c2ccc(OCCN(C)C)cc2)c2ccc(OCCN(C)C)cc2)cc1"
readout_value = "1.83 µM (inactive)"


# map each compound to its GI50
1. O=C1C=CC(=O)C(CNc2ccc(C(=O)OC34CC5CC(CC(C5)C3)C4)cc2)=C1
2. N#CC(c1nc2ccccc2s1)c1nc(Cl)ncc1Br (stereo unspecified)
3. c1cnc2c(c1)-n1cccc1C1(CCOCC1)NN2
4. Nc1nc(SCCC/C=C/I)nc2c1ncn2C1OC(COP(=O)(O)O)C(O)C1O (stereo unspecified)

-- reply
["16.1 µM (inactive)", "46.5 µM (inactive)", "> 100 µM (inactive)", "> 100 µM (inactive)"]
